Attribution: the DeepSol protein solubility set

protocol notes: soluble on expression in E. coli; label from the status in PepcDB or PDB records
property label: soluble on expression in E. coli

MDTALYLLPVTLGDTPIESVLPSYNKEIIQGIKHFIVEDVRSARRFLKKVDREIDIDSLTFYPLNKHTSPEDISGYLKPLAGGLSMGVISEAGCPAVADPGADVVAIAQRKNLKVVPLVGPSSIILSVMGSGFSGQSFAFHGYLPIEPGERAKKIKALEQRVYAEHQTQLFIETPYRNNKMVEDILHNCRPQTRLCIAANITCEGEYIRTKTIKEWQGKVPDLTKIPCIFLLYQLEHHHHHH not soluble
MGSDKIHHHHHHMLVQGFEEDLAFLGWIALTLGSNPLVPYVPTRPELIPKILELLDLKEDDVFYDLGCGDGRVVIEAVKKTRVKKAVCVETRDDLVKEARKKAEEEGVSDRIEFINNDFFKTPLKDATAVYMYLLTSVNESLKPKLARELRDGTRIVTLDFPIPGWKPVKVETATTGWQRSLYLYVKGVSDRA not soluble
DSSALPTKRKTVKLFWRELKLAGGHGVSASRFGPCATLWASLDPVSVDTARLEHLFESRAKEVLPSKKAGEGRRTMTTVLDPKRSNAINIGLTTLPPVHVIKAALLNFDEFAVSKDGIEKLLTMMPTEEERQKIEEAQLANPDIPLGPAENFLMTLASIGGLAARLQLWAFKLDYDSMEREIAEPLFDLKVGMEQLVQNATFRCILATLLAVGNFLNGSQSSGFELSYLEKVSEVKDTVRRQSLLHHLCSLVLQTRPESSDLYSEIPALTRCAKVD not soluble

---

protocol notes: soluble on expression in E. coli; label from the status in PepcDB or PDB records
property label: soluble on expression in E. coli

MDVVFPKMPHHQTVTNVRVPSSRGSAISRAHSEHRRSIDRSEPRHHHRHHVHSETPELPYTRGISKTPSVREYNVKREGQRSPSRSHRSERSPSEVRIPVTTTHTRPIAKRQSPEELDYGRFADKSQQNRFPGDHQAREEDLPYTRGISKTPSNQDSRSERTPCSDIHIPYNNPEKERAYQQSERSSYRSHKSVTPSEKSLPRNSETPELHYTRGISKTPSDRVEKSRYLSRGVSTPHTPSEVHIPYNNPEKERAYQQSHRPSSPKRRPSGRTNSPNKSSSSSKARPSAAPLEEIVHIKERYERDETIRRFFPTTTAV not soluble
MGSDKIHHHHHHMILTVTASPYLLSTNELDGTIEIGEANKIRQVSTVAGGFGTGVAATLFYGGNETFAVFPAPEISHYMRLVTFAGLPHEIIPVAGPIPMHLTMRDAEGNETKFKDSPMPLDVSQLAILRDLVVRRAEDAAWVLLGGNLPSIAPAAWFVDVVRSLRLYHPHVKVAIAATGAALRAVIRQLAATSPDALIVAAEEIEIATGLEPKTLRGPWVEGDLSPTVAAARALIDSGVTEVLVTNKRTESLYVSESESLLASYDSTPGKQGVNWRESFTAGFLAASNDGKSTEDSVINAVAYANAEGSEWDNYIPTPDKLRAEHVVIKSL not soluble

---

protocol notes: soluble on expression in E. coli; label from the status in PepcDB or PDB records
property label: soluble on expression in E. coli

AIAFRSVLVEAAVRVESPLLAHRLEDALLHACKQRFCSRILPSLGVCLTALRICKLVDGAGKQLALEIWPVEVSGGGLRARVHVELLLWSPLPHELAFAQVRSCSRFGIRLSILNGFDYAFVPPGSMPEPCTYHEEQRCWSWRFNEDDFVIGEGDWVRVLIERVEYATDSAMATFDSPGTVGSGPPLHILPPPVPVGRTVMETDQANATPGAHPEHAPPLETEPPEFWETPSILPLRVWARLDAPGLGPIDWWS soluble
MSLSEKPCERVVLDTSVFTNPSVAAVFGDNATSALAQFVILARQVSPRMEFYMPPSVLGELHHFTDAEHLPGDLELVIKLRAPRRHDISVPGMFLYELIEDIRQRIDRGLRVAEKAVREVQPTSVDRTIRWLRDRYRDALRTGLLDSSEDLDVILLAVELDGAVASADRGLLQWAEKGGLRLIPPQRLRSILEHLIENGTAGEEGHHHHHH soluble

---

protocol notes: soluble on expression in E. coli; label from the status in PepcDB or PDB records
property label: soluble on expression in E. coli

GSHMVNIIQKFIPVGANNRPGYAMKPKYITVHNTANTAVGADAAAHARYLKNPDTTTSWHFTVDDKEIYQHLPLNENGWHAGDGNGSGNRASIGIEICENADGDFAKATANAQWLIKTLMAEHNISLANVVPHKYWSGKECPRKLLDKWDSFKAGIG soluble
GAMDAEGLALLLPPVTLAALVDSWLREDCPGLNYAALVSGAGPSQAALWAKSPGVLAGQPFFDAIFTQLNCQVSWFLPEGSKLVPVARVAEVRGPAHCLLLGERVALNTLARCSGIASAAAAAVEAARGAGWTGHVAGTRKTTPGFRLVEKYGLLVGGAASHRYDLGGLVMVKDNHVVAAGGVEKAVRAARQAADFALKVEVECSSLQEAVQAAEAGADLVLLDNFKPEELHPTATVLKAQFPSVAVEASGGITLDNLPQFCGPHIDVISMGMLTQAAPALDFSLKLFAKEVAPVPKIH soluble
MLGSIACSMEFEDFDLYSYFYGLVKQIPEGYVTTYGDLAQALGDPIAARAVGYMLSINEDPDTIPCYRVVLHDGTVGNYTHPLGPMEKVRRLRADGIPVVDGMIENFDRYRFRDFKTDQPLRKMQQYQEYIARKYSESGAGEFRTVAAFDVSYEERRAFASMVIQDGSTIEAYVISDGINFPYIPGYLAFREFRFIKKLYRKADLLLIDGNGILHPRFAGLATHAGVLLDRASIGVAKHLTRSTRHQDIIYMQDRPVGVMIRKNMIVSPGNFIDVNGSADTVRKMWNDRYPWPLKLAHQLSTRHAETGGRVSEYSIESAHELHLEHHHHHH soluble

---

protocol notes: soluble on expression in E. coli; label from the status in PepcDB or PDB records
property label: soluble on expression in E. coli

LDGVLVPESGILVSVGQDVDSVNDYASALGTIPAGVTNYVGIVNLDGLNSDADAGAGRNNIAELANAYPTSALVVGVSMNGEVDAVASGRYNANIDTLLNTLAGYDRPVYLRWAYEVDGPWNGHSPSGIVTSFQYVHDRIIALGHQAKISLVWQVASYCPTPGGQLDQWWPGSEYVDWVGLSYFAPQDCNWDRVNEAAQFARSKGKPLFLNESTPQRYQVADLTYSADPAKGTNRQSKTSQQLWDEWFAPYFQFMSDNSDIVKGFTYINADWDSQWRWAAPYNEGYWGDSRVQANALIKSNWQQEIAKGQYINHSETLFETLGYGSTHHHHHH soluble
ERVVINISGLRFETQLKTLAQFPETLLGDPKKRMRYFDPLRNEYFFDRNRPSFDAILYYYQSGGRLRRPVNVPLDIFSEEIRFYELGEEAMEMFREDEG soluble

---

protocol notes: soluble on expression in E. coli; label from the status in PepcDB or PDB records
property label: soluble on expression in E. coli

MPREFKSFGSTEKSLLSKGHGEPSYSEIYAEPENFLEIEVHNPKTHIPNGMDSKGMFTDYEIICRTNLPSFHKRVSKVRRRYSDFEFFRKCLIKEISMLNHPKVMVPHLPGKILLSNRFSNEVIEERRQGLNTWMQSVAGHPLLQSGSKVLVRFIEAEKFVG soluble
MIPQRIKELEAYKTEVTPASVRLSSNEFPYDFPEEIKQRALEELKKVPLNKYPDPEAKELKAVLADFFGVKEENLVLGNGSDELIYYLSIAIGELYIPVYIPVPTFPMYEISAKVLGRPLVKVQLDENFDIDLERSIELIEKEKPVLGYFAYPNNPTGNLFSRGKIEEIRNRGVFCVIDEAYYHYSGETFLEDALKREDTVVLRTLSKIGMASLRVGILIGKGEIVSEINKVRLPFNVTYPSQVMAKVLLTEGREFLMEKIQEVVKERERMYDEMKKIEGVEVFPSKANFLLFRTPYPAHEVYQELLKRDVLVRNVSYMEGLQKCLRVSVGKPEENNKFLEALEESIKSLSSSL soluble
MTVFVDHKIEYMSLEDDAELLKTMAHPMRLKIVNELYKHKALNVTQIIQILKLPQSTVSQHLCKMRGKVLKRNRQGLEIYYSINNPKVEGIIKLLNPIQ soluble
HIKVGFSPEKLQPYTQLPSDFNEFWNKTKAEAARFPLTYTKEYVEKYSTDKIDCYLIRLQLNKQSQCIYGYLFYPKAEGKYPVVLCPPGAGIKTIKGPMRHKYYAEEGCIRFEIEIHGLNPELDEDTFGEISRAFSSRENGYLVNGLDSRENYYMKRVYLACVRSIDLLTSLPEWDGKNVIVQGGSQGGALALITAGLDKRVTACVANHPALSDMAGYKAGRAGGYPHLFKNTVDMDTPAKMKTLAYYDVVNFAKQITVPVYMTWGFNDNTCPPTTSYIVYNVLNCPKEALITPVNEHWTSEDTEYGHLLWIKKHLK not soluble

Quick note, soluble on expression in E. coli for MTIKNVICDIDGVLMHDNVAVPGAAEFLHGIMDKGLPLVLLTNYPSQTGQDLANRFATAGVDVPDSVFYTSAMATADFLRRQEGKKAYVVGEGALIHELYKAGFTITDVNPDFVIVGETRSYNWDMMHKAAYFVANGARFIATNPDTHGRGFYPACGALCAGIEKISGRKPFYVGKPSPWIIRAALNKMQAHSEETVIVGDNLRTDILAGFQAGLETILVLSGVSSLDDIDSMPFRPSWIYPSVAEIDVILEHHHHHH landed at not soluble

// soluble on expression in E. coli lookup, sequence = MSLNGTSGSVARQLAARRIIGTSWRLFVAYLKWSGVLEVSFKGVEKLNRPGQLILANHPSLLDVVLLVGHVPEMNCIVKKDLQHNPAMSSQIKGAGYIPNEESEAMLETVKAVFDSGQSLLVFPEGTRTGWDGRVKMHRGAVSLGLRYAEVITPVCIKMNPPNFKKGQPWYRIPPKRIRYEITVGDDILPQDWLAEKPLPIAARRLNEYLQDYFTRKTIEGHHHHHH , result: not soluble

// field: soluble on expression in E. coli; key: MGSDKIHHHHHHMRIIILSSSTNRSGGTRQAFYQARELATRGHHVSLCLPEDSQMHGMGYDDLIVTLPADRKRWKASIEALFAADGPTVVHAFHNRAVKFVAWHGMFWRHRGVVCCAHRGVMYRPGNPLPYISPGMDAFIANSQACARVLRLFTPAGKLFVVYNGVDDARVTPRTPADTAREQVGLPPRGAEAAWSSSSPAPLVFGFVGQNSPVKGADILIDAFARADVGEARLLMVGVSHDMWRPRCEALGIADRVHLVPHTESVSDMLQLMDAFVLPSRTESLPNTMLEAIRMGLPVIGSAVGGVPELVRGNGLLFPAGDIDALAAALGRMASDHATREAWAAASHAEGERYTIHARVDALEDIYAQLLRRRGLHTA ; value = not soluble

The recorded soluble on expression in E. coli for MGSDKIHHHHHHMASRLPPLNALRAFDASARQLSFTRAAEELFVTQAAISHQIKSLEDHLGIKLFMRKNRALLLTEEGQSYYLDIKDIFTSLHEATERLLARGAKGAITVSSQASFAIQWLVPRLTAFNSLHQDIDVRIKAVDQPENSLTEDVDIAIYYGRGRWPNIHADKLHTEYLIPVCSPLLVQENAANGKPPLLTLEDLSEHTLLHDTSRKDWKRWFKQVGVKGANVNHGPIFSHSAMVLQAALHGQGIALAYSVLAKPDIDSGRLVCPFNDVLVSKNAYFIVCRENQKDIGKITAFREWMLDMVEAEQAQITDGQIS is not soluble

For record MGSDKIHHHHHHMLFLMDFSMQTHAQTGDITPVVFDQFFQNYYLINPASSDSTGKIQVNIGNRSLIGLFDGVNRLYVDGNVRINHRTAMQYSRLGALVIAYNDGAFINRTRAYLRYSWSTSISERASISAGISAGMVKYTFLASQAGGGGSSTSFDGNAGLWYIRPKLKIGISYQQFTRSELTPVNQTFLLTPYINVNAVYASYLSAHVLLTTHVFYRYESGSVFDIQAAPVFLFNDLFEAGINLRYKRGVAILFGLKSIHVGTGNIRFMGSFMLSTRKLANTLDNAFELSAGYSF the listed soluble on expression in E. coli is not soluble
